- procedure_text: amyloid nucleation score (Sup35N fusion, yeast selection) (log enrichment); library NNK2; higher = more nucleation; inactive = no reads after selection;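 further: zero at mode of non-aggregating sequences after 7 days selection at 30°C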
The entries below are paired with their reported amyloid nucleation score.
Would you mind answering with just the numeric figure?

Take a look at these entries with their results.
VCVRTTWRKDGSISCTHKSP : 0.5
AWSYVQFRTFYALTVPTSAL : -0.125
SGVLVCVWTRS : -1.24
WNIWFTVCYCKHLSKSKGSD : 8.67
LVSIPSWCPTLASQKLIPR : 2.94

Annotate the substance "RVLKLCRLCHFKYLTSEAGV" with its measured amyloid nucleation score.
-0.309

Annotate the substance "FPGPRRLSWFPGVQRVSMMI" with its measured amyloid nucleation score.
-0.243

Annotate the substance "CIEDRVCLDS" with its measured amyloid nucleation score.
8.28

Annotate the substance "KYRCLLRATPFDKEVGSTRF" with its measured amyloid nucleation score.
-0.753

----------
- procedure_text: amyloid nucleation score (Sup35N fusion, yeast selection) (log enrichment); library NNK3; higher = more nucleation; inactive = no reads after selection
measurement_label: amyloid nucleation score

Take a look at these entries with their results.
EVKSDVMKLFNCVFSCPLTF : 2.38
ALNWISYREMHIFIAYFADS : inactive
AVSLTW : inactive
RTIHVGWVMAIIGTALRCCM : inactive
RPSSQVYGRWEIYIKYL : inactive

Annotate the substance "VLLFYLKVTRASTVGVLSSS" with its measured amyloid nucleation score.
inactive

Annotate the substance "FIYIRYPHRRS" with its measured amyloid nucleation score.
inactive

Annotate the substance "GRCRITKSLGGSSQTNGYWV" with its measured amyloid nucleation score.
inactive

Annotate the substance "APDFATIFITRWGDIQTLLV" with its measured amyloid nucleation score.
inactive

Annotate the substance "LAGSCMGLMCWVVDARAVGR" with its measured amyloid nucleation score.
0.06

Annotate the substance "IALSGRYRDSAACRDSCHVA" with its measured amyloid nucleation score.
inactive

Annotate the substance "VFTFRWHVWRDWLMSEHCDK" with its measured amyloid nucleation score.
-0.296

Annotate the substance "LLRGLAIGKKDYIYSLLLLH" with its measured amyloid nucleation score.
-0.619

Annotate the substance "VGIKTFGESGMYQVCSQVSC" with its measured amyloid nucleation score.
inactive

Annotate the substance "WSVSKCDVLGLNSDVFKLWL" with its measured amyloid nucleation score.
inactive

Annotate the substance "IVYTMCDFWSSMDLVDNLQG" with its measured amyloid nucleation score.
inactive

Annotate the substance "LRGSYNVS" with its measured amyloid nucleation score.
inactive

----------
- procedure_text: amyloid nucleation score (Sup35N fusion, yeast selection) (log enrichment); library NNK2; higher = more nucleation; inactive = no reads after selection
measurement_label: amyloid nucleation score

EHVVSSRRLYLQGDILLNSQ : inactive
AEAWGVFYHWHDT : -0.493
KRINCPKFSNGQYGLS : inactive
YIGRMVV : 0.306
VNYVDGWV : 1.45

Annotate the substance "RMLLIGIRCLIMSWHMLHN" with its measured amyloid nucleation score.
-0.029

Annotate the substance "MVSGRPTVYKTSSLQTASAN" with its measured amyloid nucleation score.
-0.14

Annotate the substance "GSARCNTSFCCQQVYFYGCG" with its measured amyloid nucleation score.
8.49

Annotate the substance "LHILRA" with its measured amyloid nucleation score.
0.605

Annotate the substance "LYLRRWSPGLVMIQYPIILW" with its measured amyloid nucleation score.
0.545

Annotate the substance "MFHLRSNVMPTGLVRTPMLL" with its measured amyloid nucleation score.
1.54

Annotate the substance "WASIQVDRSLGCNIFWLLQ" with its measured amyloid nucleation score.
3.73

Annotate the substance "YQMVTCWAYDSQDIGSWCAG" with its measured amyloid nucleation score.
-0.012

Annotate the substance "YKPRGHEVRSVG" with its measured amyloid nucleation score.
-0.752

----------
- procedure_text: amyloid nucleation score (Sup35N fusion, yeast selection) (log enrichment); library NNK3; higher = more nucleation; inactive = no reads after selection
measurement_label: amyloid nucleation score

Take a look at these entries with their results.
HCQSRRWTKFLYMGWLPSSS : 1.55
FKLTDLCC : inactive
LIWYRNDEWYSFLWMVYCSS : inactive
SAVVMRSQADSFDYLN : inactive
YLLDKYEVAFIPSHLVLHSP : inactive

Annotate the sequence "NSGWWRVKHNTSQDGSKRSG" with its measured amyloid nucleation score.
inactive

Annotate the sequence "KFIVVGYLGTIPTHPVGVPY" with its measured amyloid nucleation score.
0.6

Annotate the sequence "FLMVGKISKMFKQYNLLFH" with its measured amyloid nucleation score.
inactive

Annotate the sequence "LASRSHKHINATLAHLNPLL" with its measured amyloid nucleation score.
inactive

----------
- procedure_text: amyloid nucleation score (Sup35N fusion, yeast selection) (log enrichment); library NNK1; higher = more nucleation; inactive = no reads after selection
Think of -0.09 as a floor: if amyloid nucleation score stands on it or above, it is y; beneath it, n.

Identify whether the reported amyloid nucleation score of the following sequence is -0.09 or greater: "FYFSASATIL"
n

Identify whether the reported amyloid nucleation score of the following sequence is -0.09 or greater: "EVYRVTAYVLFYGICQLTLE"
n

Identify whether the reported amyloid nucleation score of the following sequence is -0.09 or greater: "GRLSGYEWGRKSRSPGRWTV"
y

Identify whether the reported amyloid nucleation score of the following sequence is -0.09 or greater: "LFEGHLTSISEPGVVDRSIR"
n

Identify whether the reported amyloid nucleation score of the following sequence is -0.09 or greater: "ARSCVLNLVPGFSPSFGT"
n

Identify whether the reported amyloid nucleation score of the following sequence is -0.09 or greater: "WLNRMFFGDLCDMAIWKMCM"
n

Identify whether the reported amyloid nucleation score of the following sequence is -0.09 or greater: "VVVFSNYNFVGKCIHVNSEL"
y

----------
- procedure_text: amyloid nucleation score (Sup35N fusion, yeast selection) (log enrichment); library NNK2; higher = more nucleation; inactive = no reads after selection
Think of 0.5 as a floor: if amyloid nucleation score stands on it or above, it is criterion met; beneath it, criterion not met.

Example cases with answers are listed next.
RPLPSFPNNRSERSNTSF : criterion met
REFLCCGN : criterion met
KGLASKAHSIGLCT : criterion met
LRKNSLTCSSKKPEKAVTFC : criterion not met
LYISQSCGRHD : criterion not met

Identify whether the reported amyloid nucleation score of the following sequence is 0.5 or greater: "SIYRFDLTYPNRHHCYNVVI"
criterion not met

Identify whether the reported amyloid nucleation score of the following sequence is 0.5 or greater: "SSMLYTYVRLMNMNNIYVAS"
criterion met

Identify whether the reported amyloid nucleation score of the following sequence is 0.5 or greater: "YRSAYFMFTVDHFGLELFFL"
criterion met

Identify whether the reported amyloid nucleation score of the following sequence is 0.5 or greater: "SKLFESLVTCLIKGLHVVNN"
criterion not met

Identify whether the reported amyloid nucleation score of the following sequence is 0.5 or greater: "QQHYLEEPDDESLVRGCRHW"
criterion not met

----------
- procedure_text: amyloid nucleation score (Sup35N fusion, yeast selection) (log enrichment); library NNK1; higher = more nucleation; inactive = no reads after selection
measurement_label: amyloid nucleation score
Would you mind answering with just the numeric figure?

Take a look at these entries with their results.
DDKLLRVLFLMCSPYYTIIG : -0.065
IIISTGVRFTEDSCGFAWAE : -0.009
TEGRKSSNVQ : 0.577
SSESICFNIRGQDINRT : -0.446
ESAERGVRGSGRGRMNGGMM : -0.778

Would you kindly look at the next entry?
Annotate the sequence "VETRRWFHRL" with its measured amyloid nucleation score.
-0.177

----------
- procedure_text: amyloid nucleation score (Sup35N fusion, yeast selection) (log enrichment); library NNK2; higher = more nucleation; inactive = no reads after selection
measurement_label: amyloid nucleation score
Would you mind answering with just the numeric figure?

Take a look at these entries with their results.
VYYTVVCGDDRRCIKMCKFC : 5.33
YEMFHAILCY : -0.101
CQAVRRILCYWTAYDIERAV : 1.16
FSACFGCFVLAKSNHY : 0.955

Annotate the substance "CRFIRFHYLGYNLGSHHIYI" with its measured amyloid nucleation score.
-0.902

Annotate the substance "VSEIRDFCVVIGF" with its measured amyloid nucleation score.
0.573

Annotate the substance "WSMVQLPFSFIYPRGYLNMG" with its measured amyloid nucleation score.
-0.615

Annotate the substance "RTVGLSHIIICN" with its measured amyloid nucleation score.
0.089

Annotate the substance "ITAGVPVFYL" with its measured amyloid nucleation score.
-1.22

Annotate the substance "EKNTMDF" with its measured amyloid nucleation score.
1.64

----------
- procedure_text: amyloid nucleation score (Sup35N fusion, yeast selection) (log enrichment); library NNK3; higher = more nucleation; inactive = no reads after selection
measurement_label: amyloid nucleation score
Would you mind answering with just the numeric figure?

RTMAFLIFS : 0.172
VMLCHFDMYF : 1.45
YIIFNFIDFYKPGWGFQWTV : 2.82

Would you kindly look at the next entry?
Annotate the substance "PTTFNVFLGLWCVGTYCTWL" with its measured amyloid nucleation score.
0.997

Recorded values, source the supplement of paper PMC12042874.
